System: CCRF-CEM
Assay: NCI SRB growth inhibition (single dose 10 µM / five-dose)
Assay type: cell-based, human
Conditions: Homo sapiens; CCRF-CEM, Leukemia; five-dose
property_label: GI50 (nM)
The reply should be a number in nM, with the unit left off.

COc1cccc(C=NNC(=O)c2ccc3[nH]c(-c4ccc(Cl)cc4)nc3c2)c1 1950
COc1ccc(-c2nc3cc(C(=O)NN=Cc4cccc(OC)c4)ccc3[nH]2)cc1 7910
COc1cccc(C=NNC(=O)c2ccc3[nH]c(-c4ccc(Cl)cc4)nc3c2)c1O 430
COc1ccc(-c2nc3cc(C(=O)NN=Cc4cccc(OC)c4O)ccc3[nH]2)cc1 1050
COc1cccc(C=NNC(=O)c2ccc3[nH]c(-c4ccccc4)nc3c2)c1O 300
COc1ccc(-c2nc3cc(C(=O)NN=Cc4ccccc4O)ccc3[nH]2)cc1 920

As a next step, examine the molecule that follows.
**Query** Field request: GI50 | item: `COc1cc(C=NNC(=O)c2ccc3[nH]c(-c4ccc(Cl)cc4)nc3c2)cc(OC)c1OC`
**Result** 6270

The reported numbers originate from paper PMC10893631.
